Test system: P94_40
test details: qHTS profiling for inhibitors of Plasmodium falciparum proliferation (AID 504749); note: nearly all actives have a fitted effect of over 60% in size
assay setup: P. falciparum in erythrocytes, SYBR Green DNA, 72 h; series mostly up to 28.7 µM
Records with an inconclusive call do not appear. Active and inactive are the calls of the source. Calls come from the whole dose curve; as a rule, active = well fitted inhibition curve with a large enough effect; inconclusive = small, poorly fitted or top-dose-only effect; inactive = flat fitted curve, though single readings scatter.
Reply using exactly one outcome from active, inactive

What is the recorded call for this compound in the test? CC1(C)S[C@@H]2[C@H](NC(=O)COc3ccccc3)C(=O)N2[C@H]1C(=O)O
inactive

Hi, sorry to bother you, what did the test record for C/C=C\c1ccc(OC)cc1 ?
inactive

Dear colleague, could you share the recorded outcome for CO/N=C(/C(=O)N[C@@H]1C(=O)N2C(C(=O)O)=CCS[C@H]12)c1csc(N)n1 when you have a moment?
inactive

Query: recorded result category for CCC(C)n1ncn(-c2ccc(N3CCN(c4ccc(OCC5COC(Cn6cncn6)(c6ccc(Cl)cc6Cl)O5)cc4)CC3)cc2)c1=O (stereo not drawn) in this test
inactive

Hi, sorry to bother you, what did the test record for NC1=NC(S)C2N=CN=C2N1 (stereo not drawn) ?
inactive

Look up the recorded call for CC(C)CN(C[C@@H](OP(=O)(O)O)[C@H](Cc1ccccc1)NC(=O)O[C@@H]1CCOC1)S(=O)(=O)c1ccc(N)cc1 in this test.
inactive

Which outcome did this test record for the compound CO[C@@H]1[C@@H](OC2OC(C)C(OC3CC(C)(O)C(OC(=O)CC(C)C)C(C)O3)C(N(C)C)C2O)[C@@H](CC=O)C[C@@H](C)C(=O)/C=C\C2O[C@H]2C[C@@H](C)OC(=O)C[C@H]1OC(C)=O (stereo partly drawn) ?
active

// param item: CCN1/C(=C/C=C/C=C/c2sc3ccccc3[n+]2CC)Sc2ccccc21 ; yields the recorded call
active
